target-under-test: SdiA (Salmonella enterica subsp. enterica serovar Typhimurium, UniProt O66040)
Sequence (O66040 entry or part of it): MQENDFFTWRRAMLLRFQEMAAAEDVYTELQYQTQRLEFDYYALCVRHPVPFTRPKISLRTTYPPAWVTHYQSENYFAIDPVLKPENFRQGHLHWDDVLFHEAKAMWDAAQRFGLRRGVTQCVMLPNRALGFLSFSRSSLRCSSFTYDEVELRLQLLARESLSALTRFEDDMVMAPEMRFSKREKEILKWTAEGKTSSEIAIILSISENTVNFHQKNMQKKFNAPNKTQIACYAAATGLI
measurement-description: S. Typhimurium-pJNS25 SdiA reporter, agonism (luminescence)
Format: cell-based
condition-label: maximal activation of the antagonists (partial agonism), Table 3; read-out: activation (%)
The threshold is inclusive: Emax of exactly 50% counts as TRUE; values below receive FALSE.

Determine whether measured Emax meets or exceeds 50% for "O=C(Cc1ccc(Br)cc1)N[C@@H]1CCOC1=O"
TRUE

Determine whether measured Emax meets or exceeds 50% for CCCCCCC(CCCC)C(=O)N[C@H]1CCOC1=O (some centres unmarked)
TRUE

Determine whether measured Emax meets or exceeds 50% for "CCCCCCCCCCCCCCCC(=O)N[C@H]1CCOC1=O"
FALSE

Determine whether measured Emax meets or exceeds 50% for "CCCCCCCCCCCC(=O)N[C@H]1CCOC1=O"
TRUE

Determine whether measured Emax meets or exceeds 50% for "CCCCCCCCCCOc1ccc(C(=O)N[C@H]2CCOC2=O)cc1"
FALSE

Determine whether measured Emax meets or exceeds 50% for "CCCCCCCCCCCOc1ccc(C(=O)N[C@H]2CCOC2=O)cc1"
FALSE

Determine whether measured Emax meets or exceeds 50% for "CCOC(=O)CNC(=O)Cc1cccc([N+](=O)[O-])c1"
TRUE

Determine whether measured Emax meets or exceeds 50% for "CCOC(=O)CNC(=O)Cc1ccc(OC)cc1"
TRUE

Determine whether measured Emax meets or exceeds 50% for "CSc1ccc(CCC(=O)N[C@H]2CCOC2=O)cc1"
TRUE

Determine whether measured Emax meets or exceeds 50% for O=C(CCCCCCCCCN=C=S)CC(=O)N[C@H]1CCOC1=O [compound 11, reference compound]
FALSE

Determine whether measured Emax meets or exceeds 50% for "O=C(CCc1cccc(I)c1)N[C@H]1CCOC1=O"
TRUE

Determine whether measured Emax meets or exceeds 50% for "CSc1ccc(CC(=O)N[C@H]2CCOC2=O)cc1"
TRUE

Determine whether measured Emax meets or exceeds 50% for O=C(Nc1ccccc1NC(=O)c1cccc(Cl)c1)c1cccc(Cl)c1 [compound 20, reference compound]
FALSE
